# ASSAY_SYSTEM: T1, extracellular binding domain of human SIRPγ (plate-coated) (human, UniProt Q9P1W8 29-360)
# T1 construct: also called hSIRPγ
# T1 sequence (Q9P1W8 29-360 limits assumed): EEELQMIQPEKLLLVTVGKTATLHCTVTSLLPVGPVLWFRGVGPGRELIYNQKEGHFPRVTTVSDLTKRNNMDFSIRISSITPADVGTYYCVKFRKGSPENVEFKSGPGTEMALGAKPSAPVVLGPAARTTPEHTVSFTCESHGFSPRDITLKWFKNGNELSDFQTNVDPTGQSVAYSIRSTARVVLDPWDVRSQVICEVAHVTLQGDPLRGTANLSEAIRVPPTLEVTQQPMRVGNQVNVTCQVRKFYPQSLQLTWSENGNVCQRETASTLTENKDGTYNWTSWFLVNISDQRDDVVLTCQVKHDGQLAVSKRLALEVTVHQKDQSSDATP
# PROTOCOL: ELISA, coated SIRP ECD (2 µg/mL), anti-human IgG, luminescence
# EC50 (read off the curve) per entry

Consider the following illustrative entries.
[
  {
    "BINDER": "Antibody 58 (antibody, V domains shown) VH: QVQLVQSGAEVKKPGASVKVSCKASGYTFTAYYMHWVRQAPGQGLEWMGIINPSGGSTSYAQKFQGRVTMTRDTSTSTVYMELSSLRSEDTAVYYCARDSGWYAPGYYYGMDVWGQGTTVTVSS VL: DIQMTQSPSSLSASVGDRVTITCRASESISHWLAWYQQKPGKAPKLLIYGASTLQSGVPSRFSGSGSGTDFTLTISSLQPEDFATYYCQQSYTPPLTFGGGTKVEIK",
    "EC50 (read off the curve)": "~0.09 µg/mL"
  },
  {
    "BINDER": "Antibody 72 (antibody, V domains shown) VH: QVQLVQSGAEVKKPGASVKVSCKASGYTFTDNYLHWVRQAPGQGLEWMGIIETSGGSTDYAQKFQGRVTMTRDTSTSTVYMELSSLRSEDTAVYYCARSFGGYSYDDAFDIWGQGTTVTVSS VL: DIQMTQSPSSLSASVGDRVTITCQASQGISNYLNWYQQKPGKAPKLLIYAASSLQSGVPSRFSGSGSGTDFTLTISSLQPEDFATYYCQQSYSSPYTFGQGTKVEIK",
    "EC50 (read off the curve)": "~0.2 µg/mL"
  }
]

# evaluate next
Specify EC50 (read off the curve) for Antibody 6 (antibody, V domains shown) VH: QVQLVQSGAEVKKPGASVKVSCKASGYTFTGYHIHWVRQAPGQGLEWMGWINPNSGGTNYAQKFQGRVTMTRDTSINTAYMELNRLRSDDTAVFYCARERVGYCSRPSCLDDLNIWGQGTMVTVSS VL: DIQMTQSPSTLSASVGDRVTITCRASQSISSWLAWYQQKPGKAPKLLIYKASSLETGVPSRFSGSGSGTEFTLTISSLQPDDFATYYCQQYDSYYTFGQGTKLEIK and stop.
~0.02 µg/mL
